target: glycine/NMDA receptor (Rattus norvegicus, UniProt P35439)
Construct: rat brain membrane homogenates which are enriched in NMDA receptors; tissue Pel-Freez, Rogers, Ark; (frozen rat brains); host or cells: rat brain membrane homogenates
assay.procedure: inhibition of 1 μM glycine-stimulated [3H]-MK801 binding in rat brain membrane homogenates (glycine/NMDA receptor antagonist activity)
measurement.context: 1 μM glycine-stimulated [3H]-MK801 binding, rat brain membranes; read-out: IC50
Method: This assay takes advantage of the fact that the binding of [^3 H]-MK801 to the PCP receptor inside the pore of the NMDA channel is dependent on the presence of both glutamate and glycine. […] The assay is conducted using rat brain membrane homogenates which are enriched in NMDA receptors. […] The final pellet is suspended in three volumes of 50 mM HEPES, pH 7.4 and the protein concentration is determined with a standard dye-binding protein assay (Bio-Rad, Richmond, Calif.). […]
assay.metric: IC50 (µM)

Oc1nc2ccccc2c(O)c1O [Compound 11, 2,3,4-Trihydroxyquinoline] = 60
O=C1Nc2ccccc2C(=O)C1=O = 50

* * *

target: glycine/NMDA receptor (Rattus norvegicus, UniProt P35439)
Construct: rat brain membrane homogenates which are enriched in NMDA receptors; tissue Pel-Freez, Rogers, Ark; (frozen rat brains); host or cells: rat brain membrane homogenates
assay.procedure: inhibition of 1 μM glycine-stimulated [3H]-MK801 binding in rat brain membrane homogenates (glycine/NMDA receptor antagonist activity)
measurement.context: in vitro binding assay
assay.metric: activity as antagonist for the glycine/NMDA receptor (in words)

O=C1Nc2ccccc2C1=O [Compound 13, Isatin] = not to be active
O=C1C=CC(=O)Nc2ccccc2N1 [Compound 43, 1H-6H-1,6-Benzodiazocine-2,5-dione] = inactive
O=C1Nc2cc(Cl)cc(Cl)c2C1=O [Compound 13d, 4,6-Dichloroisatin] = not to be active
COc1cc2ccccc2[nH]c1=O [Compound 5, 3-Methoxy-2-quinolone] = inactive

// provenance: patent US5597922A
